Recorded growth inhibition by entry
Assay: NCI Yeast Anticancer Drug Screen. Data for the mlh1 rad18 strain (AID 175)
Details: S. cerevisiae mlh1 rad18 strain growth inhibition; at 50.0 µM; stronger effect = higher value
Compounds without any hit were thinned out: in the full panel of roughly 79,000, 15% have a hit.
Provide only the numeric value, understood in %.

Consider the reported growth inhibition for these compounds:
Exercise: Identify measured growth inhibition corresponding to Cc1c(N(C)C)ccc2c(=O)c3cccc(CC(=O)O)c3oc12
Key: -5.05

Exercise: Identify measured growth inhibition corresponding to CCC(=O)C12CCCC1=NC(=N)N=C2C1=NC(=N)N=C2CCCC21C(=O)CC (stereo not drawn)
Key: 5.2

Exercise: Identify measured growth inhibition corresponding to O=C1CCCC(=O)c2c(O)ccc(O)c21
Key: 5.65

Exercise: Identify measured growth inhibition corresponding to COc1ccc2c(c1)s/c(=N/N)n2CCCS(=O)(=O)O
Key: 12.2

More entries:
Exercise: Identify measured growth inhibition corresponding to CCC(=O)c1ccc(OC(C)=O)cc1
Key: 4.65

----------
Test: NCI Yeast Anticancer Drug Screen. Data for the cln2 rad14 strain (AID 165);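 note: 0% = growth equal to vehicle treated cultures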
Details: S. cerevisiae cln2 rad14 strain, at 50.0 µM, stronger effect = higher value
Compounds without any hit were thinned out: in the full panel of roughly 79,000, 15% have a hit. The source made the active and inactive calls. Rule as the data show it: active = growth inhibition above about 70%; inactive = the rest.
Recorded growth inhibition by entry

Exercise: Identify measured growth inhibition corresponding to NC(C(=O)O)c1ccc(F)cc1 (stereo not given)
Key: -10% (inactive)

Exercise: Identify measured growth inhibition corresponding to CC1(C)C=C(C(=O)O)C(C)(C)N1O
Key: 6.9% (inactive)

Exercise: Identify measured growth inhibition corresponding to OC1CC=CC1
Key: 0.35% (inactive)

Exercise: Identify measured growth inhibition corresponding to Cc1ccc([N+](=O)[O-])cc1N1CCNC1=O
Key: -62.7% (inactive)

More entries:
Exercise: Identify measured growth inhibition corresponding to O=C(NCC1(c2ccc3c(c2)OCO3)OCCO1)c1ccccc1[N+](=O)[O-]
Key: -42.6% (inactive)

Exercise: Identify measured growth inhibition corresponding to COC1OC(CO)C(O)C1O (stereo not given)
Key: -44.4% (inactive)

Exercise: Identify measured growth inhibition corresponding to CC1CCCC2(C1)OCC(O)CO2 (stereo not given)
Key: 12.8% (inactive)

Exercise: Identify measured growth inhibition corresponding to O=[N+]([O-])c1ccccc1S(=O)NCc1c(Cl)cccc1Cl (stereo not given)
Key: 22.5% (inactive)

Exercise: Identify measured growth inhibition corresponding to CC(=O)CC(=O)NC(C)(C)CC(C)(C)C
Key: 10.8% (inactive)

Exercise: Identify measured growth inhibition corresponding to CC12CCc3ccccc3C1=NNC(=O)C2 (stereo not given)
Key: -6.45% (inactive)

----------
Experiment: NCI Yeast Anticancer Drug Screen. Data for the mec2-1 strain (AID 157)
Settings: S. cerevisiae mec2-1 strain, at 50.0 µM
About 79,000 compounds went through this panel and 15% of them were active in at least one assay; those are over-represented in the sample as a whole. Active and inactive are the calls of the source. Cut-off read from the data, not from the text of the source: active = growth inhibition above about 70%; inactive = the rest. Where a SMILES comes first, the peptide text is derived from it. The star is where a group is joined. Cbz = O=C(OCc1ccccc1)*
Bench note: report the call from 1.0 for active, 0.0 for inactive

Worked examples, 2 compounds total:
Exercise: Entry C1=C(c2ccccc2)C(c2ccccc2)=C(c2ccccc2)C(c2ccccc2)C(c2ccccc2)=N1 (centres undefined) : call = ?
Key: 0.0

Exercise: Entry NC(CCC(=O)Nc1cccc2ccccc12)C(=O)O (centres undefined) : call = ?
Key: 0.0

More entries:
Exercise: Entry O=C(NCC1(c2ccc3c(c2)OCO3)OCCO1)c1ccccc1[N+](=O)[O-] : call = ?
Key: 0.0

Exercise: Entry COC(=O)C(CC(C)C)NC(=O)C(CCCN=C(N)N)NC(=O)OCc1ccccc1 (stereo not drawn) (Cbz-Arg-Leu-OMe; configuration not given here) : call = ?
Key: 0.0

Exercise: Entry CN1C(=O)C(O)Nc2ncncc21 (centres undefined) : call = ?
Key: 0.0

Exercise: Entry CN(C)c1cc[n+](-c2c([O-])c3ccccc3n(-c3ccccc3)c2=O)cc1 : call = ?
Key: 0.0

Exercise: Entry O=S(O)CCCCCSSCCCCSSCCCCCS(=O)O : call = ?
Key: 0.0

Exercise: Entry O=C(Nc1ccccc1C(=O)N/N=C/c1cccc(O)c1)c1ccccc1 : call = ?
Key: 0.0

Exercise: Entry Fc1ccc(-c2nc3ccccc3[nH]2)cc1 : call = ?
Key: 0.0

Exercise: Entry O=C(O)C1CCC2SC(F)(F)C(F)(F)C2C1 (centres undefined) : call = ?
Key: 0.0

Exercise: Entry Cc1ccc(S(=O)(=O)NCCN)cc1 : call = ?
Key: 0.0

Exercise: Entry CN(C)C1(C(=O)O)c2ccccc2-c2ccccc21 : call = ?
Key: 0.0

Exercise: Entry NC1=C(O)C(=O)C(c2ccc(C3OC(N)=C(O)C3=O)cc2)O1 (centres undefined) : call = ?
Key: 0.0

Exercise: Entry O=C(O)CCCCCCCCCCCc1ccccc1 : call = ?
Key: 0.0

Exercise: Entry O=[N+]([O-])c1ccc(/C=N\N=P(c2ccccc2)(c2ccccc2)c2ccccc2)cc1 : call = ?
Key: 0.0
